Listed below: phosphorylation enrichment values for each entry.
tested on: c-Abl (mouse); experiment: phosphorylation enrichment, bacterial display (enrichment ratio); higher = better substrate or ligand; peptides without Tyr show the background;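 also: 11-residue human phosphosite peptides and single-mutation variants displayed on the E. coli surface, counted by deep sequencing, each peptide's frequency after selection divided by its frequency in the unselected input library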;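 also: frequency after pTyr selection over input frequency; kinase dosed for 20-30% of maximal phosphorylation in three min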
endpoint-name: phosphorylation enrichment

>  <sequence-data>
LSERGYSFVTT [ACTA2_Y200_T196S]

>  <value>
0.925

$$$$
>  <sequence-data>
ARMTNCGLPRY [TSPAN12_Y138_Y138C]

>  <value>
0.575

$$$$
>  <sequence-data>
LLVVVYKFRCF [PSEN1_Y154_L153V_YF]

>  <value>
1.19

$$$$
>  <sequence-data>
PLAVPYLDKPP [JMJD7_Y31]

>  <value>
0.658

$$$$
>  <sequence-data>
RFLRGYEQDAY [HLA-A_Y137_R138E]

>  <value>
0.478

$$$$
>  <sequence-data>
TFEPNYGTVKR [RAPGEF6_Y1447_Q1452R_YF]

>  <value>
0.691

$$$$
>  <sequence-data>
IKNSGYISQYL [EIF2AK3_Y585_R588Q]

>  <value>
0.435

$$$$
>  <sequence-data>
EYFDGYWEYSV [ITGA2B_Y265_G267E]

>  <value>
1.54

$$$$
>  <sequence-data>
FTAVGYHKHIT [NOMO1_Y1137]

>  <value>
0.569

$$$$
>  <sequence-data>
PLDAEYFTLQI [TP53_Y327_G325A]

>  <value>
1.29

$$$$
>  <sequence-data>
FFDANCDGKEF [MAPRE2_Y162_Y162C_YF]

>  <value>
1.09

$$$$
>  <sequence-data>
RIVRKYKKVRF [F8_Y442_G439V]

>  <value>
0.687

$$$$
>  <sequence-data>
FGSLLYKYAFK [FANCD2_Y458]

>  <value>
0.627

$$$$
